# Test system: PA-1
# method: Primary qHTS to identify gynecologic anti-cancer compounds using libraries of approved drugs and bioactive compounds (AID 1345084); also: nearly all actives have a fitted effect of over 55% in size
# conditionSummary: Gynecologic cancer cell panel viability, ATPlite luminescence, 48 h; series mostly up to 57.5 µM
Inconclusive results are not listed. Active and inactive are the calls of the source. Calls follow the shape of the dose curve; as a rule, active = well fitted cell-killing curve with a large enough effect; inconclusive = small, poorly fitted or top-dose-only effect, or effect the other way; inactive = flat fitted curve, though single readings scatter.
Hi! Could you answer with just one of these? active, inactive

// return assay outcome for CC(=O)OC1[C@H]2[C@@H](C[C@@H](C)[C@@H]3C=CC(=O)[C@@]13C)OC(=O)[C@@H]2C (stereo partly drawn)
active

// return assay outcome for C/C=C(\C)C(=O)OC1C=C(C)CC(OC(=O)c2ccc(O)cc2)C2C1(C)CCC2(O)C(C)C (stereo not drawn)
inactive

// return assay outcome for `COc1cc(O)c2c(c1)/C=C/C[C@H](O)[C@H](O)C(=O)/C=C\C[C@H](C)OC2=O`
active

More entries:
// return assay outcome for `CN(C)N(C)C(=O)[C@@]1(Cc2ccccc2)CCCN(C(=O)[C@@H](Cc2c[nH]c3ccccc23)NC(=O)C(C)(C)N)C1`
inactive

// return assay outcome for `N#Cc1ccc(COc2ccc(-c3cccc4nc(NC(=O)C5CC5)nn34)cc2)cn1`
inactive

// return assay outcome for `Cc1cc(-c2cc(OC(=O)c3ccccc3)ccc2Cl)cc2nnc(Nc3ccc(OCCN4CCCC4)cc3)nc12`
inactive

// return assay outcome for `Cn1ncc2cc(-c3cnc(N)c(Cl)c3N3CCC4(CCNC4=O)CC3)ccc21`
inactive

// return assay outcome for CC/C(C)=C/C(=O)OC1C(OC2(C)CCC3C(C4C(C)CCC42)C3(C)C)OC(C)C(O)C1O (stereo not drawn)
inactive

// return assay outcome for `C=C1CCC[C@]2(C)CC/C(=C(/CO)C(=O)OC)C[C@@H]12`
inactive
